Value source: ChEMBL document CHEMBL3507680

Experiment: Human HepG2 cell viability assay in 384 well format
Type: toxicity, cell-based
Design: dose 125 nL, time 70.5 hour; concentration not given beside the values
Details: HepG2 cells, read-out: Inhibition

# molecule, cytotoxicity at 70.5 h (%)
measured = [
    ("CCOc1ccc(C(=O)NCCCNc2ncccn2)cc1", 17.7),
    ("CCc1ccc(CN2CCN(c3ccc(Cl)nn3)CC2)nc1", -4.56),
    ("Cc1cc(NC(=O)CN2CCc3nn(C)c(=O)cc3C2)on1", 1.43),
    ("Cn1c(=O)ccn(CC(=O)Nc2cnccc2O)c1=O", -4.1),
    ("CCc1nc2n(n1)CC(NCc1cc(OC)c3c(c1)OCO3)CC2 (configuration not stated)", 1.22),
    ("Cc1noc(C)c1CN1C[C@@H](C(=O)O)[C@H](C(C)C)C1", -10),
    ("Cc1noc2nc(C3CCN(Cc4ccncc4)CC3)cc(C(F)F)c12", 31.7),
    ("O=C(C1CCCO1)N1CCC(O)(Cn2ccc3ccncc32)CC1 (configuration not stated)", 15.9),
    ("Cc1ccc(C)c(CN(C)Cc2nnc3ccccn23)c1", 14.1),
    ("Cc1nnc(N2CCOC(C)C2)c(C#N)c1C (configuration not stated)", -8.59),
    ("O=C(C[C@@H]1COC[C@H]2CN(C(=O)c3ccccn3)C[C@@H]12)N1CCCC1", 1.42),
    ("CC(C)CCc1noc(CN2CCCN(C(=O)c3ccco3)CC2)n1", -0.918),
]

###

Experiment: Human HepG2 cell viability assay in 384 well format
Type: toxicity, cell-based
Parameters: dose 125 nL, time 70.5 hour; concentration not given beside the values
Conditions: HepG2 cells, read-out: Inhibition

# compound, cytotoxicity at 70.5 h [%]
measured = [
    ("CCN1Cc2ccccc2N(C(=O)C2CCC2)CCC1=O", -5.17),
    ("COc1ccc(Cl)cc1CN(C)CC(=O)/N=c1\\cc[nH]n1C(C)C1CC1 (stereo unspecified)", 20.8),
    ("COc1ccc(-c2nc(C3CCNCC3)cc3c2ncn3C)cc1", 11.7),
    ("CN(C)CCO[C@H]1C[C@@H](O)C12CCN(c1cnccn1)CC2", -6.05),
    ("CSCC(C)(O)CNC(=O)Nc1ccc(C)cc1Br (stereo unspecified)", -3.05),
    ("Cn1nnc2cc(C(=O)N3CCC(Nc4cccnn4)CC3)ccc21", -15.7),
    ("CC(C)c1nccn1C1CCCN(C(=O)c2cccc3c2OCO3)C1 (stereo unspecified)", 8.22),
    ("CC(NC(=O)CCc1cccs1)c1nnc2n1CCCCC2 (stereo unspecified)", 8.51),
    ("CN(C)CCNc1cc(-c2ccccc2C(N)=O)c2cc[nH]c2n1", -8.6),
    ("O=C(CSc1ccccc1Cl)NS(=O)(=O)c1ccc2c(c1)OCCO2", -4.84),
    ("Cc1ccc(C(=O)N2C[C@H]3CNC[C@H]3C2)cn1", 25.5),
]

###

List of cytotoxicity at 70.5 h values.
Assay: Human HepG2 cell viability assay in 384 well format
Format: toxicity, cell-based
Set-up: dose 125 nL, time 70.5 hour; concentration not given beside the values
Details: HepG2 cells, read-out: Inhibition

# compound, cytotoxicity at 70.5 h, %
data = [
    ("Oc1ccc([C@H]2Oc3cc(O)cc(O)c3C[C@@H]2O)cc1", -11.9),
    ("C=C(C)CN1CCC(n2cc(C3CCCC3)nn2)CC1", -2.5),
    ("CCC(C(=O)NCC1=CCCN(C)C1)c1ccccc1 (centres undefined)", -13.4),
    ("c1cncc(CN2CCCn3nnc(COCC4CC4)c3C2)c1", -9.26),
    ("CC(C)OCc1noc(C2CCOC2)n1 (centres undefined)", -9.31),
    ("COCC(=O)N1CC[C@@H](N2CCOCC2)[C@@H]1Cc1ccccc1", 4.62),
    ("COc1cc(CN(C)CCc2ccncc2)c(SC)cc1OC", -7.73),
    ("CCOc1cc(C)nc(N2CCN(C(C)c3nc(C)no3)CC2)n1 (centres undefined)", -1.64),
    ("O=C(c1cnccn1)N1CCCC2(COCCN(CC3CC3)C2)C1 (centres undefined)", -20.3),
    ("Cc1c[nH]c(C2CCCN(Cc3cccc(C(=O)O)c3)C2)n1 (centres undefined)", -4.03),
    ("CC(C)COc1cncc(NCC(O)c2ccco2)n1 (centres undefined)", 33.1),
    ("CCC(CC)N1CCC(c2[nH]ncc2S(C)(=O)=O)C1 (centres undefined)", -5.29),
    ("CN(C[C@@H]1CCC[C@@H]2CN(Cc3cccnc3)C[C@@H]21)C1CC1", -1.32),
    ("N#Cc1nccnc1N1CCC(Cc2ccccc2)C1 (centres undefined)", -3.44),
    ("CCCNc1cc(C(=O)N2CCOCC2)nc(C)n1", -4.28),
    ("Cc1ccnc(NC(=O)C2CCN(CCCc3cn[nH]c3)CC2)c1", -14.2),
    ("CSc1nccc(N2CCC(=O)N(CC3CC3)C(C(C)C)C2)n1 (centres undefined)", 54.1),
    ("c1ccc(-c2nnn3c2COC(CNCC2CC2)C3)cc1 (centres undefined)", -0.253),
    ("Cn1c(N)c2c(=O)n(C)c(-c3ccc(Cl)cc3)cc2c(C#N)c1=O", -8.81),
    ("COc1ncc(-c2ccc(NC(C)=O)cc2)c(OC)n1", -11),
    ("COc1ccc(CC(=O)N2CC[C@@H](OC)[C@@H]2Cc2cccnc2)cc1", -4.94),
    ("CCNC(=O)CN(CC)Cc1nc2c(F)cccc2n1CC", 21.7),
    ("CCCC(C#N)NC(=O)CCCOc1cccc(C(C)=O)c1 (centres undefined)", 18),
    ("COCCN1CC(c2cc(O)nc(NC(C)C)n2)CC1=O (centres undefined)", -6.05),
    ("CSc1sc2c(O)cc(=O)[nH]c2c1C(N)=O", 11.3),
    ("Cc1noc(-c2cccnc2N(C)Cc2ccc([S+](C)[O-])cc2)n1 (centres undefined)", -3.37),
    ("CN(C)S(=O)(=O)CCCOc1cccc(-n2ccnc2)c1", -3.93),
    ("Cc1ncncc1-c1ccnc(N(C)C)n1", -1.27),
    ("CN(C)[C@@H]1CCN(c2ncccn2)[C@H]1Cc1ccncc1", -5.48),
    ("O=C(NCc1ccc(-n2cncn2)nc1)c1cc[nH]n1", -4.63),
    ("CCN(C(c1cccnc1)c1ccc2c(c1)CCO2)S(C)(=O)=O (centres undefined)", -4.03),
    ("CNc1cc(N2CCCC2CNCc2ccc(C)o2)ncn1 (centres undefined)", 5.47),
    ("COCCN1CCc2c(CNC(=O)c3nccn3C)cncc2C1", 3.83),
    ("COc1ccc(C(=O)N2C[C@@H](CN3CCCC3)[C@@H](CO)C2)c(C)c1", -8.12),
    ("CC(O)CN1CCC(CN(C)Cc2cc(C#N)ccc2F)CC1 (centres undefined)", -7.5),
    ("OC(CN1CCC(c2ccn[nH]2)CC1)c1ccccc1F (centres undefined)", -4.73),
    ("COCCn1ccc(NC(=O)Nc2ccccc2)n1", -2.83),
    ("O=C(CCC1CCCO1)NCCc1ccccn1 (centres undefined)", -10),
    ("Cc1oc(C)c(C(=O)N2CCN(Cc3cscn3)CC2)c1C", -7.99),
    ("CCc1cccc(N2CCC(NC(=O)C3CCCO3)CC2)c1 (centres undefined)", -3.65),
    ("COC(=O)NC1(C(=O)NCc2ccc(-c3ccn[nH]3)cc2)CCCC1", -0.909),
    ("CCc1nc(C2CCCN2C(=O)c2ccc3c(c2)nnn3C)no1 (centres undefined)", 16.3),
    ("CCOc1cccc(COC(=O)c2cc(C)on2)n1", 1.07),
    ("CN(C)[C@@H]1CCN(c2ncc(F)cn2)[C@H]1Cc1cccnc1", 17.3),
    ("Cc1n[nH]c(C2CN(C(=O)c3scnc3C)CCO2)n1 (centres undefined)", -7.66),
    ("Cc1nn(-c2ccccc2)cc1C(=O)N1CCCN2CCCC2C1 (centres undefined)", 3.01),
    ("CC(C)n1nc2c(cc1=O)CN(CC(=O)N(C)c1nccs1)CC2", 6.02),
    ("CC(C)c1noc(CNc2cccc(-c3nnnn3C)c2)n1", -8.75),
    ("COc1cc(OC)cc(-c2cccc3c2OC(CN)C3)c1 (centres undefined)", 24.7),
]

###

Assay: Human HepG2 cell viability assay in 384 well format
Assay type: toxicity, cell-based
Set-up: dose 125 nL, time 70.5 hour; concentration not given beside the values
Conditions: HepG2 cells, read-out: Inhibition

# molecule, units.text, cytotoxicity at 70.5 h
records = [
    ("O=C1C[C@H]2[C@@H](CCN2C(=O)Cc2ccsc2)N1Cc1cccnc1", "%", -3.76),
    ("COc1cccc(CNCc2ccc(F)cc2Cl)c1O", "%", -1.41),
    ("COc1cnc(CN2CC(=O)N(c3ccc(C)cc3)CC2C)cc1O (stereo unspecified)", "%", -5.7),
    ("COc1ccccc1C(C)CNC(=O)c1[nH]ncc1Br (stereo unspecified)", "%", 3.61),
    ("CCc1cnc(N2C[C@H]3C[C@H](C(=O)NC4CCC4)[C@@H](C2)O3)nc1", "%", -1.31),
    ("Cc1cc(CN2Cc3ccccc3CC2c2nnc(C)o2)on1 (stereo unspecified)", "%", -6.94),
    ("COCC1CN(Cc2ccncc2)Cc2nnn(CC3CC3)c21 (stereo unspecified)", "%", -10.7),
    ("Nc1cc(-c2nccnc2N2CCCC2)c2cc[nH]c2n1", "%", -11.5),
    ("CCOC(CC)C(=O)NCc1cccc(N2CCCCC2=O)c1 (stereo unspecified)", "%", -6.54),
    ("O=C(NCCS(=O)(=O)N1CCN(c2ncccn2)CC1)C1CCCC1", "%", -5.6),
    ("Cc1cc(NC(=O)Cn2ccccc2=O)n(C)n1", "%", -11.7),
]
